test: Cell Viability - LYMP1-003 - Assay at 40 hr (AID 964); further: nearly all actives have a fitted effect of over 60% in size
details: LYMP1-003 lymphoblastoid viability; series mostly up to 92.2 µM
Inconclusive results are not listed. Activity calls are given as the source filed them. The call rests on the fitted dose curve; in most records, active means well fitted cell-killing curve with a large enough effect; inconclusive means small, poorly fitted or top-dose-only effect; inactive means flat fitted curve, though single readings scatter.
reported-metric: outcome

> print(dat)
                                   molecule  reported.metric  obs.value
1                                  c1ccncc1          outcome   inactive
2                     c1ccc(CSCc2ccccc2)cc1          outcome   inactive
3                               CCNC(=S)NCC          outcome   inactive
4                        Cc1cc2nc(N)sc2cc1C          outcome   inactive
5  CCC(Cl)CC(Cl)C(Cl)C(Cl)C(Cl)C(C)Cl (stereo not drawn)          outcome   inactive
6                     c1ccc(COCc2ccccc2)cc1          outcome   inactive

Hello, please tell me recorded outcome for this one: CC(C)(C)C(=O)C1C(=O)c2ccccc2C1=O
inactive

Hello, please tell me recorded outcome for this one: O=c1[nH]ncc2ccccc12
inactive
